Give T/C for every item shown.
Tested on: L1210 leukemia ip in BDF1 mice, survival T/C
Test: NCI In Vivo Anticancer Drug Screen. Data for tumor model L1210 Leukemia (intraperitoneal) in B6D2F1 (BDF1) mice
Settings: endpoint: mean survival time; dose: 400.0 mg/kg/injection; schedule: Q01DX009 (ip); vehicle: saline with Tween-80; higher = longer survival
Toxic doses and inconclusive results are not listed.

Request - read-out T/C | tested on L1210 leukemia ip in BDF1 mice, survival T/C | compound O=C(O)CC(SC(CC(=O)O)C(F)(F)C(F)(F)C(F)(F)F)C(F)(F)C(F)(F)C(F)(F)F (configuration not stated)
94 % of control

Notebook entry, L1210 leukemia ip in BDF1 mice, survival T/C assay: T/C of NC(=O)CCC(N)C(=O)O (configuration not stated) = ?
93 % of control

T/C of Cc1cc(OC(=O)Nc2cccc(Cl)c2)ccc1Cl on L1210 leukemia ip in BDF1 mice, survival T/C?
95 % of control

Record COc1ccc(NC(=O)Oc2cccc(C(F)(F)F)c2)c(Cl)c1 : what is its T/C with L1210 leukemia ip in BDF1 mice, survival T/C?
94 % of control

Hi! What's the reported T/C for Cc1ccnc([N+](=O)[O-])c1 on L1210 leukemia ip in BDF1 mice, survival T/C?
106 % of control

What is its T/C for L1210 leukemia ip in BDF1 mice, survival T/C? Entry: O=c1c(N2CCOCC2)c(N2CCOCC2)c1=O
100 % of control

Request: T/C, test system L1210 leukemia ip in BDF1 mice, survival T/C, entry COc1ccc(OC(=O)Nc2ccccc2C(F)(F)F)cc1
102 % of control

Please state recorded T/C (tested on L1210 leukemia ip in BDF1 mice, survival T/C) of CCCCCCCCCCCCCCCCS(=O)(=O)c1ccc(S(=O)(=O)F)cc1NC(=O)C(F)(F)F
105 % of control

Request: T/C, test system L1210 leukemia ip in BDF1 mice, survival T/C, entry CCC1(c2ccccc2)C(=O)NC(=O)N(Cc2ccccc2)C1=O (configuration not stated)
98 % of control

Item: O=C(CNC(=O)c1ccccc1)N/N=C/c1ccc(Cl)cc1Cl Test system: L1210 leukemia ip in BDF1 mice, survival T/C Read-out: T/C Value: ?
98 % of control

// fetch L1210 leukemia ip in BDF1 mice, survival T/C T/C for CCn1c(C)cc(O)cc1=O
94 % of control

Lab request: please report T/C under test system L1210 leukemia ip in BDF1 mice, survival T/C for Cc1sc(=S)n(CC(=O)O)c1C
92 % of control

Reported T/C for L1210 leukemia ip in BDF1 mice, survival T/C, given O=C(O)CCN(CCC(=O)O)CCC(=O)O ?
100 % of control

Reported T/C for L1210 leukemia ip in BDF1 mice, survival T/C, given COc1cc2c(cc1C(C)C)CCC1C(C)(C#N)CCCC21C (configuration not stated) ?
92 % of control

Please tell me: T/C of COC(=O)C(CSCSC)NC(=O)/C=C/c1ccccc1C (configuration not stated) , system L1210 leukemia ip in BDF1 mice, survival T/C?
113 % of control

Give recorded T/C with L1210 leukemia ip in BDF1 mice, survival T/C for the following compound: Cc1cccc(C)c1NC(=O)C(C)C
90 % of control

// map Cc1ccccc1N1OS(=O)(=O)CC1(C#N)c1ccccc1 (configuration not stated) to recorded T/C (system: L1210 leukemia ip in BDF1 mice, survival T/C)
96 % of control

Provide the documented T/C with L1210 leukemia ip in BDF1 mice, survival T/C as the system for O=[N+]([O-])c1ccc(N/N=C(\CBr)c2ccccc2)c([N+](=O)[O-])c1
94 % of control

Request - read-out T/C | tested on L1210 leukemia ip in BDF1 mice, survival T/C | compound COC(=O)C(CSCSC)NC(=O)NC1CCCCC1 (configuration not stated)
91 % of control

# get_value(readout= T/C, system= L1210 leukemia ip in BDF1 mice, survival T/C) for c1ccc(CCSc2ccccc2)cc1
95 % of control

Record Cc1ccc(NS(=O)(=O)c2ccccc2)cc1 : what is its T/C with L1210 leukemia ip in BDF1 mice, survival T/C?
103 % of control

What value of T/C on L1210 leukemia ip in BDF1 mice, survival T/C does N#CCCn1cnc2c(N)ncnc21 have?
91 % of control

Notebook: pull reported T/C for L1210 leukemia ip in BDF1 mice, survival T/C, entry CCOC(=O)c1cnc(SCc2ccccc2)[nH]c1=O
92 % of control

Form: Entry = Cc1nccn1C(/C(=N/O)c1ccccc1)c1ccccc1 (configuration not stated) | System = L1210 leukemia ip in BDF1 mice, survival T/C | T/C = ____
94 % of control

Lab note: need T/C with L1210 leukemia ip in BDF1 mice, survival T/C for entry COc1ccc(C(=O)Nc2cccc(C(F)(F)F)c2)cc1 , please look it up.
118 % of control

Request - read-out T/C | tested on L1210 leukemia ip in BDF1 mice, survival T/C | compound Cc1cc2ccccc2c(N)c1C#N
95 % of control

Which T/C is reported with L1210 leukemia ip in BDF1 mice, survival T/C for this entry: CCN(CC)CCN1C(=O)CN=C(c2ccc[nH]2)c2cc(Cl)ccc21 ?
117 % of control
